Entries and their measured polymerase ribozyme fitness (log ratio) follow.
B1: TPR 5TU (parent)
chain: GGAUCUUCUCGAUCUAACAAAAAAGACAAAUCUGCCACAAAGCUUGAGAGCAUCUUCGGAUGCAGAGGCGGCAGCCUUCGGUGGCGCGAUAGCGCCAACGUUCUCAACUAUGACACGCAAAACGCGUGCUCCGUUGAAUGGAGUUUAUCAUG

variants of: B1; experiment: polymerase ribozyme fitness, log enrichment relative to wild type (log ratio); higher = more active; in vitro selection for triplet polymerase activity
This sample holds only a part of the variants without activity.

>  <VARIANT_CODE>
A3U C5A U15C A19G C57G C118G G136A G141C A142C

>  <REL>
≤

>  <polymerase ribozyme fitness (log ratio)>
-4.2

$$$$
>  <VARIANT_CODE>
A19G C32A A40C U61A C93G A110G

>  <REL>
≤

>  <polymerase ribozyme fitness (log ratio)>
-4.2

$$$$
>  <VARIANT_CODE>
A21U A24C C79U G80C C85U C93U

>  <REL>
≤

>  <polymerase ribozyme fitness (log ratio)>
-4.2

$$$$
>  <VARIANT_CODE>
C35G C51G U56G G70A C76G C85G G133U

>  <REL>
≤

>  <polymerase ribozyme fitness (log ratio)>
-4.2

$$$$
>  <VARIANT_CODE>
A21G A47C C51U C87U U90G

>  <REL>
≤

>  <polymerase ribozyme fitness (log ratio)>
-4.2

$$$$
>  <VARIANT_CODE>
A24C A98U

>  <REL>
≤

>  <polymerase ribozyme fitness (log ratio)>
-4.2

$$$$
>  <VARIANT_CODE>
U6G C35U G58C C96U A113C U135C A147U

>  <REL>
≤

>  <polymerase ribozyme fitness (log ratio)>
-4.2

$$$$
>  <VARIANT_CODE>
C76U C93A

>  <REL>
=

>  <polymerase ribozyme fitness (log ratio)>
-2.34

$$$$
>  <VARIANT_CODE>
C93A A107U G126C A150G

>  <REL>
≤

>  <polymerase ribozyme fitness (log ratio)>
-4.2

$$$$
>  <VARIANT_CODE>
A26U A40U A91U A121U

>  <REL>
≤

>  <polymerase ribozyme fitness (log ratio)>
-4.2

$$$$
>  <VARIANT_CODE>
G46A A97C C103G C123A G141C A147C C149A

>  <REL>
≤

>  <polymerase ribozyme fitness (log ratio)>
-4.2

$$$$
>  <VARIANT_CODE>
U31A U55A G83A G117A

>  <REL>
=

>  <polymerase ribozyme fitness (log ratio)>
-0.253

$$$$
>  <VARIANT_CODE>
A119U C129U

>  <REL>
=

>  <polymerase ribozyme fitness (log ratio)>
0.265

$$$$
>  <VARIANT_CODE>
G50A U134A

>  <REL>
=

>  <polymerase ribozyme fitness (log ratio)>
-3.21

$$$$
>  <VARIANT_CODE>
U53G A97U

>  <REL>
=

>  <polymerase ribozyme fitness (log ratio)>
-2.68

$$$$
>  <VARIANT_CODE>
G25U G50C C76A C87A U139G G141C

>  <REL>
=

>  <polymerase ribozyme fitness (log ratio)>
-4.02

$$$$
>  <VARIANT_CODE>
A113G U148A

>  <REL>
=

>  <polymerase ribozyme fitness (log ratio)>
-4.05

$$$$
>  <VARIANT_CODE>
A40G C85U C118A

>  <REL>
=

>  <polymerase ribozyme fitness (log ratio)>
-2.77

$$$$
>  <VARIANT_CODE>
A19C A26C

>  <REL>
=

>  <polymerase ribozyme fitness (log ratio)>
-1.76

$$$$
>  <VARIANT_CODE>
C18U C96G U127C G143A

>  <REL>
=

>  <polymerase ribozyme fitness (log ratio)>
-4.17

$$$$
>  <VARIANT_CODE>
C118A A121C U144C

>  <REL>
=

>  <polymerase ribozyme fitness (log ratio)>
-0.821

$$$$
>  <VARIANT_CODE>
A52C U55A G59U

>  <REL>
=

>  <polymerase ribozyme fitness (log ratio)>
0.0736

$$$$
>  <VARIANT_CODE>
A41C C63G G92U

>  <REL>
=

>  <polymerase ribozyme fitness (log ratio)>
-0.619

$$$$
>  <VARIANT_CODE>
C96G U102G

>  <REL>
=

>  <polymerase ribozyme fitness (log ratio)>
-3.26

$$$$
>  <VARIANT_CODE>
U4C C5A C87A A91G U145A

>  <REL>
≤

>  <polymerase ribozyme fitness (log ratio)>
-4.2

$$$$
>  <VARIANT_CODE>
C14A A52G U55G C99U

>  <REL>
=

>  <polymerase ribozyme fitness (log ratio)>
-3.48

$$$$
>  <VARIANT_CODE>
G84U U101G G126C

>  <REL>
=

>  <polymerase ribozyme fitness (log ratio)>
-1.67

$$$$
>  <VARIANT_CODE>
A23U G94A

>  <REL>
=

>  <polymerase ribozyme fitness (log ratio)>
-3.99

$$$$
>  <VARIANT_CODE>
A40C G50C C79U G81C C118U

>  <REL>
≤

>  <polymerase ribozyme fitness (log ratio)>
-4.2

$$$$
>  <VARIANT_CODE>
A20U C57A G84U

>  <REL>
=

>  <polymerase ribozyme fitness (log ratio)>
-3.17

$$$$
>  <VARIANT_CODE>
A19C G58C C87A C95A A98G

>  <REL>
≤

>  <polymerase ribozyme fitness (log ratio)>
-4.2

$$$$
>  <VARIANT_CODE>
A41U U53A G74C U82C

>  <REL>
≤

>  <polymerase ribozyme fitness (log ratio)>
-4.2

$$$$
>  <VARIANT_CODE>
U31C A39C C57A C76G C95G C131U U144G

>  <REL>
≤

>  <polymerase ribozyme fitness (log ratio)>
-4.2

$$$$
>  <VARIANT_CODE>
C51U G83C A106G A122U A142U

>  <REL>
≤

>  <polymerase ribozyme fitness (log ratio)>
-4.2

$$$$
>  <VARIANT_CODE>
A39C U53A G62C U144A

>  <REL>
≤

>  <polymerase ribozyme fitness (log ratio)>
-4.2

$$$$
>  <VARIANT_CODE>
C69U G70C C93G C114A A150C

>  <REL>
≤

>  <polymerase ribozyme fitness (log ratio)>
-4.2

$$$$
>  <VARIANT_CODE>
A17U A47C C51G U61A G83A

>  <REL>
≤

>  <polymerase ribozyme fitness (log ratio)>
-4.2

$$$$
>  <VARIANT_CODE>
A17C C36U G68C G86A U139A

>  <REL>
≤

>  <polymerase ribozyme fitness (log ratio)>
-4.2

$$$$
>  <VARIANT_CODE>
A30C G48C G67A A91U G100U

>  <REL>
≤

>  <polymerase ribozyme fitness (log ratio)>
-4.2

$$$$
>  <VARIANT_CODE>
C38A C85A U144C

>  <REL>
=

>  <polymerase ribozyme fitness (log ratio)>
-0.839

$$$$
>  <VARIANT_CODE>
A21U G59U C105U C129A

>  <REL>
=

>  <polymerase ribozyme fitness (log ratio)>
-2.46

$$$$
>  <VARIANT_CODE>
A21C G88U A142U

>  <REL>
≤

>  <polymerase ribozyme fitness (log ratio)>
-4.2

$$$$
>  <VARIANT_CODE>
A41U A89U A91C

>  <REL>
=

>  <polymerase ribozyme fitness (log ratio)>
-3.97

$$$$
>  <VARIANT_CODE>
C69A C118U

>  <REL>
=

>  <polymerase ribozyme fitness (log ratio)>
-1.62

$$$$
>  <VARIANT_CODE>
A89G C99G U102A C123G U135C U145G

>  <REL>
≤

>  <polymerase ribozyme fitness (log ratio)>
-4.2

$$$$
>  <VARIANT_CODE>
G59C U61G C96G C105U A115U A150U

>  <REL>
≤

>  <polymerase ribozyme fitness (log ratio)>
-4.2

$$$$
>  <VARIANT_CODE>
C5A C76U

>  <REL>
=

>  <polymerase ribozyme fitness (log ratio)>
-0.144

$$$$
>  <VARIANT_CODE>
A26G A52G U90G U135A G136C

>  <REL>
≤

>  <polymerase ribozyme fitness (log ratio)>
-4.2

$$$$
>  <VARIANT_CODE>
C36U C95U

>  <REL>
=

>  <polymerase ribozyme fitness (log ratio)>
-1.98

$$$$
>  <VARIANT_CODE>
C32G U55G C79U C96G

>  <REL>
=

>  <polymerase ribozyme fitness (log ratio)>
-4.01

$$$$
>  <VARIANT_CODE>
A29U A52C

>  <REL>
≤

>  <polymerase ribozyme fitness (log ratio)>
-4.2

$$$$
>  <VARIANT_CODE>
A49C G50C G81C A110U

>  <REL>
≤

>  <polymerase ribozyme fitness (log ratio)>
-4.2

$$$$
>  <VARIANT_CODE>
A28C G34A C38G C72U C76A C96G U151A

>  <REL>
≤

>  <polymerase ribozyme fitness (log ratio)>
-4.2

$$$$
>  <VARIANT_CODE>
U9A U15C G48A G50C C96A G133C

>  <REL>
≤

>  <polymerase ribozyme fitness (log ratio)>
-4.2

$$$$
>  <VARIANT_CODE>
G11C U15G A20C A28U C85U G140U U145G

>  <REL>
≤

>  <polymerase ribozyme fitness (log ratio)>
-4.2

$$$$
>  <VARIANT_CODE>
G11C A47C U55A G81A C87G A120U U144A

>  <REL>
≤

>  <polymerase ribozyme fitness (log ratio)>
-4.2

$$$$
>  <VARIANT_CODE>
C14G A91U C93G C125A

>  <REL>
≤

>  <polymerase ribozyme fitness (log ratio)>
-4.2

$$$$
>  <VARIANT_CODE>
C35U G84C

>  <REL>
=

>  <polymerase ribozyme fitness (log ratio)>
-1.94

$$$$
>  <VARIANT_CODE>
A22U G141A

>  <REL>
=

>  <polymerase ribozyme fitness (log ratio)>
2.05

$$$$
>  <VARIANT_CODE>
C8G C10U C51A G80C C95A U102G G124U A137C

>  <REL>
≤

>  <polymerase ribozyme fitness (log ratio)>
-4.2

$$$$
>  <VARIANT_CODE>
U4G G48U G84A C93A G133A G141C

>  <REL>
≤

>  <polymerase ribozyme fitness (log ratio)>
-4.2

$$$$
>  <VARIANT_CODE>
G11C A115C

>  <REL>
=

>  <polymerase ribozyme fitness (log ratio)>
-2.86

$$$$
>  <VARIANT_CODE>
C54U C57G C87A G128A

>  <REL>
≤

>  <polymerase ribozyme fitness (log ratio)>
-4.2

$$$$
>  <VARIANT_CODE>
U82C G83A C103U

>  <REL>
=

>  <polymerase ribozyme fitness (log ratio)>
-0.585

$$$$
>  <VARIANT_CODE>
C38U U45A G68C U102G A138G

>  <REL>
≤

>  <polymerase ribozyme fitness (log ratio)>
-4.2

$$$$
>  <VARIANT_CODE>
G94A G143A

>  <REL>
=

>  <polymerase ribozyme fitness (log ratio)>
-1.01

$$$$
>  <VARIANT_CODE>
C5A A16U G46C G84U A91G U109C A115U G136C

>  <REL>
≤

>  <polymerase ribozyme fitness (log ratio)>
-4.2

$$$$
>  <VARIANT_CODE>
U9G A20C C32G A89C U144A

>  <REL>
≤

>  <polymerase ribozyme fitness (log ratio)>
-4.2

$$$$
>  <VARIANT_CODE>
C27U U55A G70C A91U A97U A106G

>  <REL>
≤

>  <polymerase ribozyme fitness (log ratio)>
-4.2

$$$$
>  <VARIANT_CODE>
C10G G25U U55A G88A A106G U130A A150G

>  <REL>
≤

>  <polymerase ribozyme fitness (log ratio)>
-4.2

$$$$
>  <VARIANT_CODE>
A40U G48C C85G C99A G143A

>  <REL>
≤

>  <polymerase ribozyme fitness (log ratio)>
-4.2

$$$$
>  <VARIANT_CODE>
A150C G152A

>  <REL>
=

>  <polymerase ribozyme fitness (log ratio)>
-3

$$$$
>  <VARIANT_CODE>
G34A G50A G68U G71A C76A C85A C125U

>  <REL>
≤

>  <polymerase ribozyme fitness (log ratio)>
-4.2

$$$$
>  <VARIANT_CODE>
G50A C72U A98C C99A

>  <REL>
≤

>  <polymerase ribozyme fitness (log ratio)>
-4.2

$$$$
>  <VARIANT_CODE>
A30G C87U U101A U109C A115U A120U A122U U145G G152A

>  <REL>
≤

>  <polymerase ribozyme fitness (log ratio)>
-4.2

$$$$
>  <VARIANT_CODE>
G84U U130A U145C

>  <REL>
=

>  <polymerase ribozyme fitness (log ratio)>
-4.13

$$$$
>  <VARIANT_CODE>
U15G G25U

>  <REL>
=

>  <polymerase ribozyme fitness (log ratio)>
-3.22

$$$$
>  <VARIANT_CODE>
G92C U104C

>  <REL>
=

>  <polymerase ribozyme fitness (log ratio)>
-1.35

$$$$
>  <VARIANT_CODE>
G84A U102A

>  <REL>
=

>  <polymerase ribozyme fitness (log ratio)>
-1.01

$$$$
>  <VARIANT_CODE>
C93U C103A C105U A120G U134C

>  <REL>
=

>  <polymerase ribozyme fitness (log ratio)>
-3.94

$$$$
>  <VARIANT_CODE>
A16U G70C G81U A89G

>  <REL>
≤

>  <polymerase ribozyme fitness (log ratio)>
-4.2

$$$$
>  <VARIANT_CODE>
C32U A49U

>  <REL>
=

>  <polymerase ribozyme fitness (log ratio)>
-4.14

$$$$
>  <VARIANT_CODE>
A17U U33G G34C A47G

>  <REL>
≤

>  <polymerase ribozyme fitness (log ratio)>
-4.2

$$$$
>  <VARIANT_CODE>
C63G G65A G71A C87A C118U U145C

>  <REL>
≤

>  <polymerase ribozyme fitness (log ratio)>
-4.2

$$$$

Taken from the RNAGym collection of RNA variant scans (doi:10.1073/pnas.2313332121).
